molecular target: AKR1C3 (Homo sapiens (Human), UniProt P42330); experiment: S-tetralol oxidation assay, AKR1C3; type: biochemical; settings: NADP+ dependent oxidation of S-tetralol, S-tetralol at Km; Table 1
Sequence (P42330 whole entry): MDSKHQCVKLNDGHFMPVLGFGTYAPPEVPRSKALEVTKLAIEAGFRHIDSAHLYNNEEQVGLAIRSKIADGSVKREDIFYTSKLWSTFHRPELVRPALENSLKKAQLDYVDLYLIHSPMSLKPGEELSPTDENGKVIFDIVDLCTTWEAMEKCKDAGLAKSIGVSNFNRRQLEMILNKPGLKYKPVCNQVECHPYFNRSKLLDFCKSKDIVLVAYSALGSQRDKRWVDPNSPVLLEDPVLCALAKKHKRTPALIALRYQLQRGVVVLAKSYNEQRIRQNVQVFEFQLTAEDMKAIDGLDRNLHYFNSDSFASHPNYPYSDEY
measured-property: log10 IC50 (log10 of the value in µM)
A difference of one corresponds to tenfold IC50; all values are log10 with IC50 in µM.

Field log10 IC50 (entry COc1ccc2cc(CC(=O)O)ccc2c1 ) reads -0.19

Field log10 IC50 (entry CC[C@@H](C(=O)O)c1ccc2cc(OC)ccc2c1 [LM5750B 8a] ) reads -0.96

Field log10 IC50 (entry CCOc1ccc2cc(C(C)C(=O)O)ccc2c1 (racemic) [LM5753(±) 3] ) reads -1.00

Field log10 IC50 (entry CSc1ccc2cc([C@@H](C)C(=O)O)ccc2c1 [(R)-4a] ) reads -1.30

Field log10 IC50 (entry CCc1ccc2cc(C(C)C(=O)O)ccc2c1 (racemic) [LM5751(±) 2, 2-(6-Ethylnaphthalen-2-yl)propanoic Acid] ) reads -0.92

We next turn to a different compound, shown below.
Field log10 IC50 (entry COc1ccc2cc(C(C)(C)C(=O)O)ccc2c1 ) reads -0.57
